Task for the reader: assign each of the following molecules its reported uninfected host cell viability.
system: HFF; assay: uninfected host cell viability relative to vehicle control; higher = less host cell toxicity; conditions: 5 µM; 72 h; oxygen 21 %
Hit rate of the full screen: of about 1,000 compounds, about 15 (2%) showed an effect of 50% or more. Only a selection was taken, and strong results are over-represented in it overall.
// note: answer is a bare numeric in %

The recorded uninfected host cell viability for O=C(NC(NC(=S)Nc1ccc(F)c([N+](=O)[O-])c1)C(Cl)(Cl)Cl)C(c1ccccc1)c1ccccc1 (centres undefined) is 86.1

In plain terms, "Cc1cc(/C(=C/Nc2ccc(Cl)cc2)C(=O)Nc2ccc(Cl)cc2)on1" has a documented uninfected host cell viability of 86.9

Notebook: "CC(C)c1onc(-c2c(Cl)cccc2Cl)c1COc1ccc(/C=C/c2cccc(C(=O)O)c2)c(Cl)c1" , uninfected host cell viability read as 96.2

molecule C=C1C(=O)O[C@@H]2/C=C(\C)CC/C=C(\C)CC[C@@H]12 [Costunolide] , uninfected host cell viability observed: 114
